This section presents IC50 values reported for Cytochrome P450 2C19 (Homo sapiens, UniProt P33261) in the literature.

- Cc1cnc2[nH]cc(Cc3cnc(Nc4ccc(C(F)(F)F)nc4)nc3)c2c1: > 10 µM
- CC(C)Oc1ccc(S(=O)(=O)N2C[C@H](n3nc(CC(=O)O)c4ccc(F)cc43)C[C@H]2CO)cc1: > 20 µM
- N#Cc1cc(CNc2ccccc2C(=O)Nc2cc3ccccc3cn2)ccn1: 1.8 µM
- C[C@@H](c1ccc(-c2ncc(F)cn2)cc1)N1CC[C@](CC(C)(C)O)(c2ccccc2)OC1=O: > 10 µM
- CCn1cc(Nc2ccc(Cc3c[nH]c4ncnc(C)c34)c(F)n2)cn1: > 10 µM
- C[C@H](c1ccc(F)cc1)n1cncc1CN1CCN(S(=O)(=O)c2cnc(N3CCN(C4CCN(C)CC4)CC3)s2)CC1: > 10 µM
- COc1ccc(Nc2ccc(C(=O)c3c[nH]c4ncnc(N5CCCCC5)c34)c(F)n2)cn1: 5 to 10 µM

### Prompt Lab request: please report IC50 under test system Cytochrome P450 2C19 (Homo sapiens, UniProt P33261) for CNC(=O)Nc1cc2n(n1)CCN2c1cc(Br)cc(C(=O)N2CCNCC2)c1
### Response > 20 µM

###

This section presents IC50 values reported for Cytochrome P450 2C19 (Homo sapiens) in the literature.

• COc1cc2c(Nc3ccncc3)nc(N3CCC(F)(F)CC3)nc2cc1OCCCN1CCCC1 = 44.3 µM

### Prompt Lab request: please report IC50 under test system Cytochrome P450 2C19 (Homo sapiens) for COC[C@H]1SC(N)=N[C@](C)(c2cc(NC(=O)c3cnc(OCF)cn3)ccc2F)[C@H]1F
### Response ≥ 20 µM

### Prompt Input CCc1ccc(Nc2ccc(C(=O)c3c[nH]c4ncnc(NC5CCOCC5)c34)c(F)n2)cn1
### Response > 10 µM

### Prompt Input CO[C@H]1CN(C(=O)c2cncn2[C@@H](C)c2ccccc2-c2ccc(F)cc2)CC[C@@H]1N1CCOC1=O
### Response > 10 µM

### Prompt Input O=C(c1ccc(Nc2ccc(C3CC3)nc2)nc1F)c1c[nH]c2ncnc(NCC(F)(F)F)c12
### Response > 10 µM

### Prompt Input COc1cncc(-c2ccc3nc(NC(=O)NCC(=O)O)cn3n2)c1
### Response > 20 µM

### Prompt Input COc1cccc(-c2ccc3nc(NC(=O)NCCC(=O)O)cn3n2)c1
### Response > 20 µM

### Prompt Input Cc1cnc(Nc2cnn(C3CCN(C)CC3)c2)nc1-c1ccc(C(=O)N[C@@H](C)C#N)cc1
### Response > 50 µM

### Prompt Input C[C@H]1CN(C(=O)c2cncn2[C@@H](C)c2ccccc2-c2ccc(F)cc2)CC[C@H]1N1CCNC(=O)C1
### Response > 10 µM

### Prompt Input CCn1cc(Nc2ccc(C(=O)c3c[nH]c4ncnc(C5CC5)c34)c(F)n2)cn1
### Response > 10 µM

### Prompt Input CN1c2ccccc2C(O)C2CN(Cc3ccccc3)CCC21 (stereo not drawn)
### Response ≤ 5 µM

### Prompt Input CCCNS(=O)(=O)Nc1ncnc(OCCOc2ncc(Br)cn2)c1-c1ccc2ccnn2c1
### Response > 50 µM

### Prompt Input [2H]c1c(Cl)c(Oc2cc(C(C([2H])([2H])[2H])C([2H])([2H])[2H])c(=O)[nH]n2)c(Cl)c([2H])c1-n1nc(C#N)c(=O)[nH]c1=O
### Response > 50 µM

### Prompt Input CC[C@@H](C#N)NC(=O)c1ccc(-c2nc(Nc3cnn(CC#N)c3)ncc2C)cc1
### Response > 50 µM

### Prompt Input [2H]c1c(C)c(Oc2cc(C(C([2H])([2H])[2H])C([2H])([2H])[2H])c(=O)[nH]n2)c(Cl)c([2H])c1-n1nc(C#N)c(=O)[nH]c1=O
### Response > 50 µM
